Just for reference, PubChem BioAssay is where these values come from.

molecular target: Nuclear receptor subfamily 5 group A member 2 (Homo sapiens); assay: LRH-1 (NR5A2) inverse agonists, retest, confirmation, cell-based, luminescence (AID 651613); settings: cell-based LRH-1 luciferase reporter, inverse agonism; at 3.6 µM; active compounds read high;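 further: HEK293T cells co-transfected with LRH-1 and StAR promoter luciferase reporter; 0% = vehicle wells and 100% = parental cells lacking receptor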
Below, each entry is listed alongside its reported inhibition.
Answer with a number only, understood to be in %.

N#Cc1sc2nccc(Nc3ccccc3)c2c1N	66.4
Cc1ccc(NC(=O)CSc2nnc(CNC(=O)c3ccco3)n2C)c(C)c1	58.5

Query :: Bench note: what inhibition did COc1ccc(NC(=O)CS(=O)(=O)c2ccc(C)cc2)c(OC)c1 show?
Result :: 53.1

Query :: Fill in the blank: the reported inhibition of COc1ccc2c(c1)C1C=CCC1C(c1cc3c(cc1Br)OCO3)N2 (stereo unspecified) is ____.
Result :: 37

Query :: Look up inhibition for this compound: Cc1ccc(NC(=O)CSc2sc3c(O)cc(=O)[nH]c3c2C#N)c(F)c1
Result :: 57.1

Query :: Which inhibition is listed for COc1ccc(OC)c2nc3c(C(=O)NCCN(C)C)cccc3nc12 ?
Result :: 77.8

Query :: Record request: inhibition value, item CC(=O)N1CCN(c2ccc(NCc3ccc(C)cc3)cc2)CC1
Result :: 34.2

Query :: So what's the measured inhibition for this one? O=C(CCC1CCCC1)Nc1ccc(C(=O)NCc2cccnc2)cc1
Result :: 98.7

Query :: Please give the measured inhibition for this compound: COc1ccc(N2CCN(C(=O)C3CCC(Cn4c(=S)[nH]c5ccccc5c4=O)CC3)CC2)cc1 (stereo unspecified)
Result :: 36.1

Query :: Which inhibition is reported for this compound? COc1ccc(CCNC(=O)CSc2nc3[nH]ncc3c(=O)n2-c2ccc(C)c(Cl)c2)cc1OC
Result :: 61.3

Query :: Requested read-out: inhibition. Entry: Cc1cc(/C=N/n2cnnc2)c(C)n1-c1ccc(OCc2ccc(Cl)cc2)cc1
Result :: 27.8
